Reference source: patent US10597388B2

Readings of Plant response rating, Waterhemp for the listed compounds
System: waterhemp (common waterhemp, Amaranthus rudis)
Experiment: Test C greenhouse herbicide test, pre- and postemergence
Format: in vivo
Conditions: Preemergence, 31 g ai/ha; scale 0 to 100, 0 is no effect, 100 is complete control

| Input smiles | Plant response rating, Waterhemp |
| --- | --- |
| Cc1ccc2ccccc2c1-c1c(OC(=O)OC(C)C)c(C)nn(C)c1=O | 75 |
| CC(=O)Oc1c(C)nn(C)c(=O)c1-c1c(C)sc2ccc(Cl)cc12 | 75 |
| Cc1ccc2ccc(Cl)cc2c1-c1c(O)c(C)nn(C)c1=O | 100 |
| Cc1nn(C)c(=O)c(-c2c(C)sc3c(C)cc(Cl)cc23)c1O | 40 |
| COC(=O)Oc1c(C)nn(C)c(=O)c1-c1c(C)sc2ccc(C)cc12 | 100 |
| CCCC(=O)Oc1c(C)nn(C)c(=O)c1-c1c(CC)sc2ccc(C)cc12 | 75 |
| CCc1sc2c(C)cc(C)cc2c1-c1c(O)c(C)nn(C)c1=O | 90 |
| CCC(=O)Oc1c(C)nn(C)c(=O)c1-c1ccc(F)c2ccccc12 | 85 |
| CCC(=O)Oc1c(C)nn(C)c(=O)c1-c1ccc(Br)c2ccccc12 | 90 |
| CC(=O)Oc1c(C)nn(C)c(=O)c1-c1c(C)cc(C)c2ccccc12 | 85 |

###

Test system: canarygrass (Phalaris minor)
Assay: Test D controlled growth environment herbicide test, pre- and postemergence
Format: in vivo
Settings: Postemergence, 31 g ai/ha; scale 0 to 100 (0 no effect, 100 complete control)
Mark not met for Canarygrass plant response rating values under 20, and met for everything at or above.

| Input smiles | Class name |
| --- | --- |
| CCc1sc2c(C)cc(C)cc2c1-c1c(O)c(C)nn(C)c1=O | not met |
| CCc1sc2ccc(C)cc2c1-c1c(O)c(C)nn(C)c1=O | not met |
| Cc1cc2ccccc2c(-c2c(O)c(C)nn(C)c2=O)c1C | met |
| Cc1ccc2sc(Br)c(-c3c(O)c(C)nn(C)c3=O)c2c1 | not met |
| Cc1nn(C)c(=O)c(-c2ccc(Br)c3ccccc23)c1O | not met |

###

Tested on: Russian thistle (Salsola kali)
Test: Test D controlled growth environment herbicide test, pre- and postemergence
Assay type: in vivo
Settings: Preemergence, 31 g ai/ha
Catalogue of Plant response rating (scale of 0 to 100), Russian Thistle values
Outcome measure: Plant response rating (scale of 0 to 100), Russian Thistle

| Input smiles | Tgt | Reported |
| --- | --- | --- |
| Cc1nn(C)c(=O)c(-c2ccc(F)c3ccccc23)c1O | Russian thistle (Salsola kali) | 25 |
| COC(=O)Oc1c(C)nn(C)c(=O)c1-c1c(C)sc2ccc(C)cc12 | Russian thistle (Salsola kali) | 10 |
| Cc1nn(C)c(=O)c(-c2c(C)sc3c(C)cc(Cl)cc23)c1O | Russian thistle (Salsola kali) | 0 |
| CC(=O)Oc1c(C)nn(C)c(=O)c1-c1c(C)sc2ccc(Cl)cc12 | Russian thistle (Salsola kali) | 0 |
| Cn1nc(Br)c(O)c(-c2cccc3ccccc23)c1=O | Russian thistle (Salsola kali) | 0 |
| Cc1ccc2ccccc2c1-c1c(OC(=O)OC(C)C)c(C)nn(C)c1=O | Russian thistle (Salsola kali) | 0 |
